Listing: Relative activity of selected compounds
Tested on: uterus of estrogen-primed immature female rabbits
Experiment: Clauberg-McPhail test by oral administration (endometrial transformation, "dentelle")
Type: in vivo, rabbit
Conditions: relative to nomegestrol acetate = 100%

compound	qualifying_sign	Relative activity [%]
CC(=O)O[C@]1(C(C)=O)C[C@@H](C)[C@H]2[C@@H]3C[C@H](C)C4=CC(=O)CC[C@@H]4[C@H]3CC[C@@]21C	=	165
CC(=O)OC1(C(C)=O)C2CC2C2C3C(C)C(C)C4=CC(=O)CCC4C3CCC21C (centres unmarked)	=	22
CC(=O)O[C@]1(C(C)=O)C[C@@H](C)[C@H]2[C@@H]3C=C(C)C4=CC(=O)CC[C@@H]4[C@H]3CC[C@@]21C	<	18
CCO[C@]1(C(C)=O)[C@H]2C[C@H]2[C@H]2[C@@H]3C[C@H](C)C4=CC(=O)CC[C@@H]4[C@H]3CC[C@@]21C	=	99
CC(=O)O[C@]1(C(C)=O)[C@H]2C[C@H]2[C@H]2[C@@H]3C=C(C)C4=CC(=O)CC[C@@H]4[C@H]3CC[C@@]21C	<	18
CC(=O)O[C@]1(C(C)=O)CC[C@H]2[C@@H]3[C@H](C)[C@H](C)C4=CC(=O)CC[C@@H]4[C@H]3CC[C@@]21C	=	132
CC(=O)O[C@]1(C(C)=O)CC[C@H]2[C@@H]3C=C(C)C4=CC(=O)CC[C@@H]4[C@H]3CC[C@@]21C [Nomegestrol acetate, reference compound]	=	100
CC(=O)O[C@]1(C(C)=O)[C@H]2C[C@H]2[C@H]2[C@@H]3C[C@H](C)C4=CC(=O)CC[C@@H]4[C@H]3CC[C@@]21C	=	54

----------
Tested on: uterus of estrogen-primed immature female rabbits
Test: Clauberg-McPhail test by oral administration (endometrial transformation, "dentelle")
Assay type: in vivo, rabbit
Conditions: total dose giving mean McPhail grade equal to 2, maximal administered dose 0.75 mg
Listing: ED50 of selected molecules

molecule	unit_tag	qualifying_sign	ED50
CC(=O)O[C@]1(C(C)=O)[C@H]2C[C@H]2[C@H]2[C@@H]3C=C(C)C4=CC(=O)CC[C@@H]4[C@H]3CC[C@@]21C	mg/rabbit/5 days	>	0.750
CC(=O)O[C@]1(C(C)=O)[C@H]2C[C@H]2[C@H]2[C@@H]3C[C@H](C)C4=CC(=O)CC[C@@H]4[C@H]3CC[C@@]21C	mg/rabbit/5 days	=	0.245
CCO[C@]1(C(C)=O)[C@H]2C[C@H]2[C@H]2[C@@H]3C[C@H](C)C4=CC(=O)CC[C@@H]4[C@H]3CC[C@@]21C	mg/rabbit/5 days	=	0.133
CC(=O)O[C@]1(C(C)=O)C[C@@H](C)[C@H]2[C@@H]3C=C(C)C4=CC(=O)CC[C@@H]4[C@H]3CC[C@@]21C	mg/rabbit/5 days	>	0.750
CC(=O)O[C@]1(C(C)=O)C[C@@H](C)[C@H]2[C@@H]3C[C@H](C)C4=CC(=O)CC[C@@H]4[C@H]3CC[C@@]21C	mg/rabbit/5 days	=	0.080
CC(=O)OC1(C(C)=O)C2CC2C2C3C(C)C(C)C4=CC(=O)CCC4C3CCC21C (centres unmarked)	mg/rabbit/5 days	=	0.600
CC(=O)O[C@]1(C(C)=O)CC[C@H]2[C@@H]3[C@H](C)[C@H](C)C4=CC(=O)CC[C@@H]4[C@H]3CC[C@@]21C	mg/rabbit/5 days	=	0.100

----------
Molecular target: human T47-D cell progesterone receptor (Homo sapiens, UniProt P06401)
Construct: Human PR are readily available in high amounts from the T47-D cell line in culture; endogenous in cells; host or cells: T47-D human breast cancer cell line
Sequence (P06401 1-933): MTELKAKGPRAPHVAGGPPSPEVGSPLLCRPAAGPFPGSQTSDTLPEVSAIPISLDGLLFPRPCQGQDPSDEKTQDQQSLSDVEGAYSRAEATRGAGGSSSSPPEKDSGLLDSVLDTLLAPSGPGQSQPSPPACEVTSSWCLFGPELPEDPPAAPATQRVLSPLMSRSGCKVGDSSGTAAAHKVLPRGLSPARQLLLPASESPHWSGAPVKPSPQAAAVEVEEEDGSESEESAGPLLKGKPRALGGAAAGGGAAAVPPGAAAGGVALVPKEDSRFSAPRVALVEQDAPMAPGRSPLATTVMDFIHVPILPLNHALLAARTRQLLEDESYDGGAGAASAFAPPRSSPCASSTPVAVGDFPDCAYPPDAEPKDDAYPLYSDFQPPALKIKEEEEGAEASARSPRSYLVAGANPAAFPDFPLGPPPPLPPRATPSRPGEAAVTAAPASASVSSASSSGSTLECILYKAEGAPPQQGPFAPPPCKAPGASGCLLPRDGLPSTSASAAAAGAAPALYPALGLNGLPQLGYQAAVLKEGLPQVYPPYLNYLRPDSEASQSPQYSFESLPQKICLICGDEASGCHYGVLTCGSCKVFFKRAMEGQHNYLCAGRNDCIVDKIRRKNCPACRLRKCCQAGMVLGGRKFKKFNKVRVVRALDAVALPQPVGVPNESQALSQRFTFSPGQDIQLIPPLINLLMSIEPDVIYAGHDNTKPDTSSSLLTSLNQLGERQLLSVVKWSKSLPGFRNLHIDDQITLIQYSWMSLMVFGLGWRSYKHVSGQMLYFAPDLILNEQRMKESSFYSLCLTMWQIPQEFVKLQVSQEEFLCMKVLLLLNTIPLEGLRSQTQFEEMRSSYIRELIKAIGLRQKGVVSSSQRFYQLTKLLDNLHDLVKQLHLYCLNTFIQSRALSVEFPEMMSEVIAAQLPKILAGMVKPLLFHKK
Assay: Relative binding affinity to human T47-D cell progesterone receptor (competition against [3H]-ORG 2058)
Conditions: relative binding affinity, nomegestrol acetate as reference = 100%
// label = t if RBA is not less than 60%, otherwise f

molecule	target_of_assay	class_label
CC(=O)O[C@]1(C(C)=O)C[C@@H](C)[C@H]2[C@@H]3C=C(C)C4=CC(=O)CC[C@@H]4[C@H]3CC[C@@]21C	human T47-D cell progesterone receptor (Homo sapiens, UniProt P06401)	f
CC(=O)O[C@]1(C(C)=O)CC[C@H]2[C@@H]3C=C(C)C4=CC(=O)CC[C@@H]4[C@H]3CC[C@@]21C [Nomegestrol acetate, reference compound]	human T47-D cell progesterone receptor (Homo sapiens, UniProt P06401)	t
CC(=O)O[C@]1(C(C)=O)C[C@@H](C)[C@H]2[C@@H]3C[C@H](C)C4=CC(=O)CC[C@@H]4[C@H]3CC[C@@]21C	human T47-D cell progesterone receptor (Homo sapiens, UniProt P06401)	f
CCO[C@]1(C(C)=O)[C@H]2C[C@H]2[C@H]2[C@@H]3C[C@H](C)C4=CC(=O)CC[C@@H]4[C@H]3CC[C@@]21C	human T47-D cell progesterone receptor (Homo sapiens, UniProt P06401)	t
CC(=O)O[C@]1(C(C)=O)CC[C@H]2[C@@H]3[C@H](C)[C@H](C)C4=CC(=O)CC[C@@H]4[C@H]3CC[C@@]21C	human T47-D cell progesterone receptor (Homo sapiens, UniProt P06401)	t
CC(=O)O[C@]1(C(C)=O)[C@H]2C[C@H]2[C@H]2[C@@H]3C=C(C)C4=CC(=O)CC[C@@H]4[C@H]3CC[C@@]21C	human T47-D cell progesterone receptor (Homo sapiens, UniProt P06401)	t
CC(=O)O[C@]1(C(C)=O)[C@H]2C[C@H]2[C@H]2[C@@H]3C[C@H](C)C4=CC(=O)CC[C@@H]4[C@H]3CC[C@@]21C	human T47-D cell progesterone receptor (Homo sapiens, UniProt P06401)	t
CCO[C@]1(C(C)=O)[C@H]2C[C@H]2[C@H]2[C@@H]3C=C(C)C4=CC(=O)CC[C@@H]4[C@H]3CC[C@@]21C	human T47-D cell progesterone receptor (Homo sapiens, UniProt P06401)	f

----------
Molecular target: human T47-D cell progesterone receptor (Homo sapiens, UniProt P06401)
Construct: Human PR are readily available in high amounts from the T47-D cell line in culture; endogenous in cells; host or cells: T47-D human breast cancer cell line
Sequence (P06401 1-933): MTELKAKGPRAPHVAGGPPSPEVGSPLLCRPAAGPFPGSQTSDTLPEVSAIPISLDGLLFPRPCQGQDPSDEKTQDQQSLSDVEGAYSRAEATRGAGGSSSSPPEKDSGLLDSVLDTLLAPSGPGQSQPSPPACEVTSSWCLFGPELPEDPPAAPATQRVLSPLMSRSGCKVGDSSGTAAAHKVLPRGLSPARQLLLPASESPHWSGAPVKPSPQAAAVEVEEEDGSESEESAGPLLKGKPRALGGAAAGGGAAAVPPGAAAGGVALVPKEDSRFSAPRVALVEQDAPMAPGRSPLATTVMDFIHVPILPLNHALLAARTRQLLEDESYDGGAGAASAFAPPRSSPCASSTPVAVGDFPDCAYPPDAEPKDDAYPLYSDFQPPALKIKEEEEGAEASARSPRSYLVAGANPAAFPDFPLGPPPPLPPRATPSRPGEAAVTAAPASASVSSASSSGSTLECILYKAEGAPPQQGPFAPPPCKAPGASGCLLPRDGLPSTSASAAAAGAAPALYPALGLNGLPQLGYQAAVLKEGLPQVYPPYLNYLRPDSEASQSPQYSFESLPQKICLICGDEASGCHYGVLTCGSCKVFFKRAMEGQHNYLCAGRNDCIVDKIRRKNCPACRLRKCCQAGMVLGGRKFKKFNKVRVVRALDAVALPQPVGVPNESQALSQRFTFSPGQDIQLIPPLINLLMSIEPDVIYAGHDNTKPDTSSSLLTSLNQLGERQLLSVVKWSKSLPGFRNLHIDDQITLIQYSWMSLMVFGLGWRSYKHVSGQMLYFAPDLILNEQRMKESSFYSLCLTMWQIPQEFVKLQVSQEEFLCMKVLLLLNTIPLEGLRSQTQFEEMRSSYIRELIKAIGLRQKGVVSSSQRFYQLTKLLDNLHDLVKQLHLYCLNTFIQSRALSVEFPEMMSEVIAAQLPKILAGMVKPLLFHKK
Assay: Relative binding affinity to human T47-D cell progesterone receptor (competition against [3H]-ORG 2058)
Binary label based on IC50 with cut-off 30 nM: below gives label 1, not below gives label 0.

smiles_entry	target_of_assay	class_label
CC(=O)O[C@]1(C(C)=O)CC[C@H]2[C@@H]3[C@H](C)[C@H](C)C4=CC(=O)CC[C@@H]4[C@H]3CC[C@@]21C	human T47-D cell progesterone receptor (Homo sapiens, UniProt P06401)	label 1
CC(=O)O[C@]1(C(C)=O)C[C@@H](C)[C@H]2[C@@H]3C=C(C)C4=CC(=O)CC[C@@H]4[C@H]3CC[C@@]21C	human T47-D cell progesterone receptor (Homo sapiens, UniProt P06401)	label 0
CC(=O)O[C@]1(C(C)=O)[C@H]2C[C@H]2[C@H]2[C@@H]3C=C(C)C4=CC(=O)CC[C@@H]4[C@H]3CC[C@@]21C	human T47-D cell progesterone receptor (Homo sapiens, UniProt P06401)	label 1
CC(=O)O[C@]1(C(C)=O)C[C@@H](C)[C@H]2[C@@H]3C[C@H](C)C4=CC(=O)CC[C@@H]4[C@H]3CC[C@@]21C	human T47-D cell progesterone receptor (Homo sapiens, UniProt P06401)	label 1
CC(=O)O[C@]1(C(C)=O)[C@H]2C[C@H]2[C@H]2[C@@H]3C[C@H](C)C4=CC(=O)CC[C@@H]4[C@H]3CC[C@@]21C	human T47-D cell progesterone receptor (Homo sapiens, UniProt P06401)	label 1
CCO[C@]1(C(C)=O)[C@H]2C[C@H]2[C@H]2[C@@H]3C=C(C)C4=CC(=O)CC[C@@H]4[C@H]3CC[C@@]21C	human T47-D cell progesterone receptor (Homo sapiens, UniProt P06401)	label 0

// provenance: patent EP0785211A1
